test: In vivo mouse pharmacokinetics, paired oral co-dosing, plasma and brain; design: species or system mice; conditions: brain, 10 mg/kg po co-dosed, 0.25-6 hr sampling

{"molecule": "[2H]C([2H])([2H])OC[C@@]1(O)CC[C@@]2(C)[C@@H](CC[C@@H]3[C@@H]2CC[C@]2(C)[C@@H](C(=O)Cn4ccnc4)CC[C@@H]32)C1", "AUC, ng·h/mL": 13200}
{"molecule": "[2H]C(C(=O)[C@@]1([2H])CC[C@H]2[C@@H]3CC[C@H]4C[C@@](O)(COC([2H])([2H])[2H])CC[C@]4(C)[C@H]3CC[C@@]21C)n1ccnc1 (stereo partly drawn)", "AUC, ng·h/mL": 23500}
{"molecule": "[2H]c1nc([2H])n(C([2H])C(=O)[C@@]2([2H])CC[C@H]3[C@@H]4CC[C@H]5C[C@@](O)(COC([2H])([2H])[2H])CC[C@]5(C)[C@H]4CC[C@@]32C)c1[2H] (stereo partly drawn)", "AUC, ng·h/mL": 22400}
{"molecule": "[2H]c1nc([2H])n(CC(=O)[C@H]2CC[C@H]3[C@@H]4CC[C@H]5C[C@@](O)(COC([2H])([2H])[2H])CC[C@]5(C)[C@H]4CC[C@]23C)c1[2H]", "AUC, ng·h/mL": 25000}
{"molecule": "COC[C@@]1(O)CC[C@@]2(C)[C@@H](CC[C@@H]3[C@@H]2CC[C@]2(C)[C@@H](C(=O)Cn4ccnc4)CC[C@@H]32)C1", "AUC, ng·h/mL": 14200}
{"molecule": "[2H]c1nc([2H])n(CC(=O)[C@H]2CC[C@H]3[C@@H]4CC[C@H]5C[C@@](O)(COC)CC[C@]5(C)[C@H]4CC[C@]23C)c1[2H]", "AUC, ng·h/mL": 29000}
